- ASSAY SYSTEM: T1, 383 amino acid recombinant tau (UniProt P10636-6 1-383, biotinylated where printed as biotin-rTau383 (position not given))
- T1 construct: also called rTau383
- T1 sequence (P10636 other isoform, or with tags, fused parts or gaps limits assumed): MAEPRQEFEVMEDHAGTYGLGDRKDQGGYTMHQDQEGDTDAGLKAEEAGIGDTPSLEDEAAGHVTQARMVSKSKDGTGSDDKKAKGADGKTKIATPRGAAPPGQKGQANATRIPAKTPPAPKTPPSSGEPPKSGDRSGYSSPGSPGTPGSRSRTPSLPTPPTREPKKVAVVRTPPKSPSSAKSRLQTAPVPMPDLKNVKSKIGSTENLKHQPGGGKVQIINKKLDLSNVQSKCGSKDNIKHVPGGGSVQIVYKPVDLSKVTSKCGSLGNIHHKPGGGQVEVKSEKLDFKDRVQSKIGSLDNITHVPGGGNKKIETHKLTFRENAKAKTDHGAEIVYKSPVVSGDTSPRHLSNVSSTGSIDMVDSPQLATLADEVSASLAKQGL
- EXPERIMENTAL DETAILS: Octet
What koff was measured for each of the following?
Reply with the number and its unit after it.

Consider VH1/Vk2 (antibody, V domains shown, member of the group m7; also called humanized IPN002 variant VH1/Vk2) VH: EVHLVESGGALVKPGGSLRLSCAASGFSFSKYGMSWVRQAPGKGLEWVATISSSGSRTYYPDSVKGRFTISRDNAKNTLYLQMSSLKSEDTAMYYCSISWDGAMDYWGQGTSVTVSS VL: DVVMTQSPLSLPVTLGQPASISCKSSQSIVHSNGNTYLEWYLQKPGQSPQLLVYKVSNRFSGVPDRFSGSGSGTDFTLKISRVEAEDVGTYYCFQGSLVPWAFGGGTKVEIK . Its measured koff is 8.74e-05 s⁻¹

Consider VH1/Vk1 (antibody, V domains shown, member of the group m7; also called humanized IPN002 variant VH1/Vk1) VH: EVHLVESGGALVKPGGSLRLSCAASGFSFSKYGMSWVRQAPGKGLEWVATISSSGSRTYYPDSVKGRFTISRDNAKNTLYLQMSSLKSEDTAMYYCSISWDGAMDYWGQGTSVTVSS VL: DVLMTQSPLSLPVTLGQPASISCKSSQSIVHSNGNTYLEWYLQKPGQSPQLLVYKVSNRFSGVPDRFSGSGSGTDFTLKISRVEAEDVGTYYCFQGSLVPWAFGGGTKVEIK . Its measured koff is 8.75e-06 s⁻¹

Consider VH3/Vk1 (antibody, V domains shown, member of the group m7; also called humanized IPN002 variant VH3/Vk1) VH: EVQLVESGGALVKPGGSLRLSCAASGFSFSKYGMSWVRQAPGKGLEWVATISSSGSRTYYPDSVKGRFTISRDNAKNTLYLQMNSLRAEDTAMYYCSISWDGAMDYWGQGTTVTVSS VL: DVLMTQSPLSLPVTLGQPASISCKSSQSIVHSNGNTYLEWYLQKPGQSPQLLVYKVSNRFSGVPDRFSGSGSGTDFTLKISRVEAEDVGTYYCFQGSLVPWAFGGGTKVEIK . Its measured koff is 0.000257 s⁻¹

Consider VH3/Vk3 (antibody, V domains shown, member of the group m7; also called humanized IPN002 variant VH3/Vk3) VH: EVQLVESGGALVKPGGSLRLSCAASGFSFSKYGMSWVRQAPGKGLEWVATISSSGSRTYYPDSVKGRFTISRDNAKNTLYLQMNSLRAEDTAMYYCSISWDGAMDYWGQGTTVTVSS VL: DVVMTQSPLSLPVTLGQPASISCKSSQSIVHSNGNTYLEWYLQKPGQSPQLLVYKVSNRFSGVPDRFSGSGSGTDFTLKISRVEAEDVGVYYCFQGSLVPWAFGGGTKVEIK . Its measured koff is 3.15e-05 s⁻¹

Consider VH2/Vk4 (antibody, V domains shown, member of the group m7; also called humanized IPN002 variant VH2/Vk4) VH: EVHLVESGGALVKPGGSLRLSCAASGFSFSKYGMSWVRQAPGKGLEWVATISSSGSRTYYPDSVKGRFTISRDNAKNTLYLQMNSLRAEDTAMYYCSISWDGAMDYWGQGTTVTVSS VL: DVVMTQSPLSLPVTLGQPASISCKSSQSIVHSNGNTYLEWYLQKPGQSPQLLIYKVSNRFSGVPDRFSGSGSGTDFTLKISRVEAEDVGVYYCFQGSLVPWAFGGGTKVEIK . Its measured koff is 0.000236 s⁻¹

Consider humanized IPN002 variant VH2/Vk3 (antibody, V domains shown) VH: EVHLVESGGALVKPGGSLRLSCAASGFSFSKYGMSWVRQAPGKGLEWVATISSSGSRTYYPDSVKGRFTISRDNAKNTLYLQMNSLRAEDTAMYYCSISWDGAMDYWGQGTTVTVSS VL: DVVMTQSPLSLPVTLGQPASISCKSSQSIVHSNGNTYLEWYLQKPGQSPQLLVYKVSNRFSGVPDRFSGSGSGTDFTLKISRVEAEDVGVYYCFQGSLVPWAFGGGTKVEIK . Its measured koff is 0.000232 s⁻¹

Consider VH3/Vk2 (antibody, V domains shown, member of the group m7; also called humanized IPN002 variant VH3/Vk2) VH: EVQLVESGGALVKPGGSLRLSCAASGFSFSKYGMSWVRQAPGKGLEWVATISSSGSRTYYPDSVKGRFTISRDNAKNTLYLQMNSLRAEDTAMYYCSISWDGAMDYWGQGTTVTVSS VL: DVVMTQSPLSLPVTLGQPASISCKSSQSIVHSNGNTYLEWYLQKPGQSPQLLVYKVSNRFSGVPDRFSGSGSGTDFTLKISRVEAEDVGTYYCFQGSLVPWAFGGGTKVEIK . Its measured koff is 0.000107 s⁻¹

Consider VH4/Vk2 (antibody, V domains shown, member of the group m7; also called humanized IPN002 variant VH4/Vk2) VH: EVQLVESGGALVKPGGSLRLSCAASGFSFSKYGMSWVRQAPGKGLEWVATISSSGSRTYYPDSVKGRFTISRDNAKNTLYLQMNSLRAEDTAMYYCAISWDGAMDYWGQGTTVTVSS VL: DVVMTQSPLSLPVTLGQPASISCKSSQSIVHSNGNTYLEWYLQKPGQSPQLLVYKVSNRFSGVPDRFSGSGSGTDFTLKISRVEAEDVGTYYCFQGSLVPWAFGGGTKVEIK . Its measured koff is 0.000307 s⁻¹

Consider VH4/Vk3 (antibody, V domains shown, member of the group m7; also called humanized IPN002 variant VH4/Vk3) VH: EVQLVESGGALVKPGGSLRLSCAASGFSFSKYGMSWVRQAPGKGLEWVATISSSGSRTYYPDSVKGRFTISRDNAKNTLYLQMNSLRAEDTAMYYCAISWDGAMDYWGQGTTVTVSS VL: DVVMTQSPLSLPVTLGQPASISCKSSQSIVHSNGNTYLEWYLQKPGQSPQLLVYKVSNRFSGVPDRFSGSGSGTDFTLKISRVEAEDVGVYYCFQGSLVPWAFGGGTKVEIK . Its measured koff is 9.39e-05 s⁻¹

Consider VH3/Vk4 (antibody, V domains shown, member of the group m7; also called humanized IPN002 variant VH3/Vk4) VH: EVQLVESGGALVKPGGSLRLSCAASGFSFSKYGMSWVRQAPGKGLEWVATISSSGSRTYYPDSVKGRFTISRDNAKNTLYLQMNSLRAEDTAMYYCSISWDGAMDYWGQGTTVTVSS VL: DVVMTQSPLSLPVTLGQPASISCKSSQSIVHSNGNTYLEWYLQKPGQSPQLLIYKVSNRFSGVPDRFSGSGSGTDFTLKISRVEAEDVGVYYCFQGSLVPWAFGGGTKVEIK . Its measured koff is 0.0001 s⁻¹
